# Tested on: M14 melanoma
# assay-summary: NCI-60 one-dose screen, 48 h
# cond: 10 µM unless noted
The panel holds about 83,000 compounds, 20% with a hit somewhere; the sample as a whole holds those more often. Activity calls are given as the source filed them. How the source made its calls: active means growth percent below 10; inactive means the rest.
Outcome (select one): active, inactive

Known results for compounds:
compound: O=c1oc2ccc(Br)cc2cc1C1=CSc2nc3sc4c(c3c(=O)n2N=C1)CCCC4
class-assignment: inactive

compound: COc1ccc(Cc2nn(CC(=O)N/N=C/c3ccc(F)cc3)c(=O)c3c(C)noc23)cc1
class-assignment: inactive

compound: C=C1CC[C@@H]2[C@]3(C)COC(c4cn[nH]c4-c4ccc(C)cc4)O[C@@H]3CC[C@@]2(C)[C@@H]1C/C=C1/C(=O)OCC1O (some centres undefined)
class-assignment: active

compound: CCN(CC)c1ccc(/C=N/Nc2nc(-c3ccc(Br)cc3)cs2)c(O)c1
class-assignment: inactive

compound: CC(C)Sc1nc(NCCc2c[nH]c3ccccc23)c(C#N)c(-c2ccc(F)cc2)n1
class-assignment: inactive

For CC(=O)c1cc(C(=O)c2ccccc2)n2c1ccc1ccccc12 , what call appears in the results of this test?
inactive

For Cc1ccc2c(N)c(C(=O)Nc3ccc(-c4ccccc4)cc3)sc2n1 , what call appears in the results of this test?
inactive

For CCCCNC(=S)Nc1ccc(OCc2nc3ccccc3[nH]2)cc1 , what call appears in the results of this test?
inactive

For COc1ccc(N2N=C(c3ccc4c(c3)OCO4)CC2c2cccc(NC(=O)CCCNS(=O)(=O)c3ccc(F)cc3)c2)cc1 (centres undefined) , what call appears in the results of this test?
inactive

---

Please go through the items and note down their growth.
# Test system: BT-549 breast
# assay-summary: NCI-60 one-dose screen, 48 h (100 = growth as untreated, 0 = no growth, -100 = all killed)
# cond: 10 µM unless noted
This is part of a sample that, as a whole, favours compounds with a hit. Of some 83,000 tested, about 20% had one in any assay.
Numbers only, in %.

smiles-input: O=C(c1ccccc1)c1ccc2nc(-c3cccc(Cl)c3)[nH]c2c1
value-units: %
growth: 105
//
smiles-input: CCCSc1nc(NCCc2c[nH]c3ccccc23)c(C#N)c(-c2ccc(OC)cc2)n1
value-units: %
growth: 83.2
//
smiles-input: S=C(NCCc1ccccc1)Nc1ccc(OCc2nc3ccccc3[nH]2)cc1
value-units: %
growth: 109
//
smiles-input: COc1cc2oc(-c3cccc(NC(=O)[C@H](CC(N)=O)NC(=O)OC(C)(C)C)c3)cc(=O)c2c(OC)c1OC
value-units: %
growth: 82.6

Please look at the following molecule next.
Form field growth, entry O=C(c1ccccc1)C(c1c[nH]c2ccccc12)c1c[nH]c2ccccc12 : 14

---

# Test system: HCT-116 colon
# assay-summary: NCI-60 one-dose screen, 48 h (100 = growth as untreated, 0 = no growth, -100 = all killed)
# cond: 10 µM unless noted
Compounds without any hit were thinned out: in the full panel of roughly 83,000, 20% have a hit.
property-measured: growth (%)
Give bare numbers, in %.

Answered examples (2):
compound: CSc1ccc(C(=O)Nc2ccc3nn(/C(C#N)=C/c4ccccn4)nc3c2)cc1
assayed-target: HCT-116 colon
value-units: %
growth: -93.8
//
compound: COc1ccc(C2=NN(C(C)=O)C(c3ccc(OCc4ccc(Cl)cc4)c(OC)c3)C2)cc1OC (stereo not given)
assayed-target: HCT-116 colon
value-units: %
growth: 35.3

Please state growth for every compound in the list that follows.
1. CCOC(=O)c1ccc(Nc2nc(NN)nc(-c3ccc(OC)cc3)c2C#N)cc1
2. CN1CCN(c2ccc(C(=O)/C=C/c3ccc(Br)cc3)cc2)CC1
3. CC(=O)Nc1ccc(-n2cnc3ccc(-c4ccc(O)cc4)cc32)cc1
4. COc1ccc(-c2ccc(SCC(=O)Nc3ccc(S(N)(=O)=O)cc3Br)nn2)cc1
5. COc1ccc(-c2ccc(SCC(=O)NCCc3ccc(S(N)(=O)=O)cc3)nn2)cc1

1. 101
2. 7.41
3. 20.2
4. 79.4
5. 70.4
